The following compounds are shown together with reported IC50 values.
- target: Heat shock protein HSP 90-alpha (Homo sapiens) (UniProt P07900)
- assay: Hsp90 blockade concentration-response – dose response (AID 712)
- assayContext: Hsp90 inhibition assay
Active and inactive are the calls of the source. No rule for the calls is given here.

> print(dat)
                                smilesentry              result
1                  Nc1cc(=O)c2n[nH]nc2[nH]1  > 50 µM (inactive)
2       O=C1C(c2ccc3ccccc3n2)=C(O)c2ccccc21  > 50 µM (inactive)
3  O=C(COc1ccc(-c2ccccc2)cc1)N1CCN(C(=O)c2cccnc2)CC1  > 50 µM (inactive)
4  COc1ccc2c(c1-c1cc(NS(=O)(=O)c3cc(Cl)ccc3Cl)ccc1N)OCO2  > 50 µM (inactive)
5             O=[N+]([O-])c1ccc(O)c2cccnc12  > 50 µM (inactive)

Which value of IC50 has been reported for O=C(NCCCn1ccnc1)c1noc2c1CCc1ccccc1-2 in the records? 13.5 µM

###

- target: Heat shock protein HSP 90-alpha (Homo sapiens)
- assay: Hsp90 blockade concentration-response – dose response (AID 712)
- assayContext: Hsp90 inhibition assay
Activity calls are given as the source filed them. No rule for the calls is given here.
Hi! Could you answer with just one of these? yes (1) for active, no (0) for inactive

> print(dat)
                                   compound                                    target  categorylabel
1       O=C1c2cccnc2C(=O)N1Cc1ccc2c(c1)OCO2  Heat shock protein HSP 90-alpha (Homo sapiens)         no (0)
2          Nc1ccc(NS(=O)(=O)c2ccccc2)c(O)c1  Heat shock protein HSP 90-alpha (Homo sapiens)         no (0)
3  CN(C)[C@@H]1C(=O)C(C(N)=O)=C(O)[C@@]2(O)C(=O)C3=C(O)c4c(O)cccc4[C@@](C)(O)[C@H]3C[C@@H]12  Heat shock protein HSP 90-alpha (Homo sapiens)        yes (1)

Hello, I am checking results. What call was entered for NNc1ccc2c(Cl)cc(Cl)c(O)c2n1 ? no (0)

###

- target: Heat shock protein HSP 90-alpha (Homo sapiens) (UniProt P07900)
- assay: Hsp90 blockade concentration-response – dose response (AID 712)
- assayContext: Hsp90 inhibition assay
The source made the active and inactive calls. The rule behind the calls is not given here.
Hi! Could you answer with just one of these? active, inactive

Look over these answered cases.
> print(dat)
                                   molecule  categorylabel
1                          Nc1ccc2ncccc2c1N         active
2  O=[N+]([O-])c1cc(S(=O)(=O)Nc2ccc(F)c(-c3c(O)ccc4c3OCO4)c2)ccc1Cl         active
3  Nc1ccc(NS(=O)(=O)c2cccc([N+](=O)[O-])c2)cc1-c1ccccc1O       inactive
4               Cn1ncnc2c(=O)n(C)c(=O)nc1-2         active

Hello, I am checking results. What call was entered for CC(=O)c1ccc(NC(=O)CSc2nnc(Cc3cccn3C)n2-c2ccc(F)cc2)cc1 ? inactive

Hello, I am checking results. What call was entered for O=C(NC1(C(F)(F)F)Oc2ccc(Cl)cc2O1)N1CCC2(CC1)OCCO2 (stereo not drawn) ? active
